- TARGET_SYSTEM: UniProt:P00533
- ASSAY_INFO: Inhibition of recombinant human GST-tagged wild type EGFR ( 668 to 1210 residues) cytoplasmic domain expressed in baculovirus expression system preincubated for 20 mins followed by addition of [33P]-ATP measured after 2 hrs by filter-binding method
- CONDITION_PARAMETERS: read-out: IC50
Consider the following molecules; for each one, report its pIC50.
One number for each entry, as −log10 of the molar value.

Worked set:
C=CC(=O)Nc1cccc(-c2c[nH]c3nccc(Cl)c23)c1; 6.28
CCC(=O)Nc1cccc(-c2c[nH]c3nccc(-c4[nH]c(CCCO)nc4-c4ccc(F)cc4)c23)c1; 6.17
Fc1ccc(-c2nc(-c3ccccc3)[nH]c2-c2ccnc3[nH]ccc23)cc1; 6.15

Now consider a different molecule.
Problem: Given the molecule `OCCCc1nc(-c2ccc(F)cc2)c(-c2ccnc3[nH]ccc23)[nH]1` , what is its reported pIC50?
Result: 7.36

###

- TARGET_SYSTEM: Epidermal growth factor receptor (Homo sapiens, UniProt P00533, L858R/T790M)
- ASSAY_INFO: Binding affinity to human EGFR L858R/T790M double mutant (669 to 1011 residues) expressed in mammalian system preincubated for 1 hr followed by 30 fold dilution measured after 5 hrs
PROPERTY_NAME: pKd
Answers are plain numbers, as −log10 of the molar value.

Problem: Name the reported pKd value associated with the molecule `C=CC(=O)Nc1cccc(-c2c[nH]c3nccc(-c4[nH]c(CCCO)nc4-c4ccc(F)cc4)c23)c1`
Result: 7.85

###

- TARGET_SYSTEM: Epidermal growth factor receptor (Homo sapiens, UniProt P00533, T790M/C797S/L858R)
- ASSAY_INFO: Inhibition of recombinant human N-terminally GST-tagged EGFR L858R/T790M/C797S triple mutant expressed in baculovirus in Sf9 insect cells preincubated for 20 mins followed by addition of [33P]-ATP measured after 2 hrs by filter-binding method
PROPERTY_NAME: IC50

C=CC(=O)Nc1cccc(-c2c[nH]c3nccc(-c4[nH]c(CCCO)nc4C4CC4)c23)c1; Not Active
C=CC(=O)Nc1cccc(-c2c[nH]c3nccc(-c4[nH]c(-c5ccccc5)nc4-c4ccc(F)cc4)c23)c1; Not Active
Fc1ccc(-c2nc(-c3ccccc3)[nH]c2-c2ccnc3[nH]ccc23)cc1; Not Active

###

- ASSAY_INFO: Drug metabolism in human liver microsomes assessed as parent compound remaining at 100 uM after 4 hrs in presence of NADPH regenerating system by LC-MS analysis
- Format: ADME, microsome
- CONDITION_PARAMETERS: read-out: Stability
PROPERTY_NAME: remaining at 4 h, 100 µM (%)
One number for each entry, in %.

Problem: # get_value(readout='remaining at 4 h, 100 µM', item= `C=CC(=O)Nc1cccc(-c2c[nH]c3nccc(-c4[nH]c(CCCO)nc4-c4ccc(F)cc4)c23)c1` )
Result: 87

###

- TARGET_SYSTEM: Epidermal growth factor receptor (Homo sapiens, UniProt P00533, C797S/L858R/T790M)
- ASSAY_INFO: Inhibition of recombinant human N-terminally GST-tagged EGFR L858R/T790M/C797S triple mutant expressed in baculovirus in Sf9 insect cells preincubated for 20 mins followed by addition of [33P]-ATP measured after 2 hrs by filter-binding method
PROPERTY_NAME: pIC50
Give bare numbers, as −log10 of the molar value.

Fc1ccc(-c2[nH]c(-c3ccccc3)nc2-c2ccnc3[nH]c(-c4ccccc4)cc23)cc1; 5.84
OCCCc1nc(-c2ccc(F)cc2)c(-c2ccnc3[nH]ccc23)[nH]1; 6.03
OCCCc1nc(-c2ccc(F)cc2)c(-c2ccnc3[nH]c(-c4ccccc4)cc23)[nH]1; 7.68
NCc1cccc(-c2nc(-c3ccc(F)cc3)c(-c3ccnc4[nH]c(-c5ccccc5)cc34)[nH]2)c1; 6.47

Give pIC50 for each listed item.
1. Oc1cccc(-c2nc(-c3ccc(F)cc3)c(-c3ccnc4[nH]c(-c5ccccc5)cc34)[nH]2)c1
2. OCCCCc1nc(-c2ccc(F)cc2)c(-c2ccnc3[nH]c(-c4ccccc4)cc23)[nH]1
3. OCCc1nc(-c2ccc(F)cc2)c(-c2ccnc3[nH]c(-c4ccccc4)cc23)[nH]1

Result:
1: 6.11; 2: 8.08; 3: 8.12

###

- TARGET_SYSTEM: UniProt P00533
- ASSAY_INFO: Binding affinity to wild-type human EGFR (669 to 1011 residues) expressed in bacterial system preincubated for 1 hr followed by 30 fold dilution measured after 5 hrs
- Type: ADME
PROPERTY_NAME: pKd
Answers are plain numbers, as −log10 of the molar value.

Problem: Need pKd, item `C=CC(=O)Nc1cccc(-c2c[nH]c3nccc(-c4[nH]c(CCCO)nc4-c4ccc(F)cc4)c23)c1`
Result: 8.47

###

- ASSAY_INFO: Solubility of the compound at pH 7.5 by UV-HPLC analysis
- Assay type: physicochemical
- CONDITION_PARAMETERS: buffer, read-out: solubility
For each entry below, report its solubility value.
Answers are plain numbers, in µg/mL.

C=CC(=O)Nc1cccc(-c2c[nH]c3nccc(-c4[nH]c(CCCO)nc4-c4ccc(F)cc4)c23)c1; 299

We next turn to a different compound, shown below.
Problem: Can you share its solubility? I mean this compound: `OCCc1nc(-c2ccc(F)cc2)c(-c2ccnc3[nH]c(-c4ccccc4)cc23)[nH]1`
Result: 7

###

- TARGET_SYSTEM: Epidermal growth factor receptor (Homo sapiens, UniProt P00533)
- ASSAY_INFO: Inhibition of recombinant human GST-tagged wild type EGFR ( 668 to 1210 residues) cytoplasmic domain expressed in baculovirus expression system preincubated for 20 mins followed by addition of [33P]-ATP measured after 2 hrs by filter-binding method
- CONDITION_PARAMETERS: read-out: IC50
PROPERTY_NAME: IC50 (µM)
One number for each entry, in µM.

Field: example entries. Status: answers known.
Oc1ccc(-c2nc(-c3ccco3)c(-c3ccnc4[nH]c(-c5ccccc5)cc34)[nH]2)cc1; 1.79
CCC(=O)Nc1cccc(-c2cc3c(-c4[nH]c(-c5ccccc5)nc4-c4ccc(F)cc4)ccnc3[nH]2)c1; 0.0272
C=CC(=O)NCc1cccc(-c2cc3c(-c4[nH]c(-c5ccccc5)nc4-c4ccc(F)cc4)ccnc3[nH]2)c1; 0.0332
Oc1ccc(-c2nc(-c3ccccc3)c(-c3ccnc4[nH]c(-c5ccccc5)cc34)[nH]2)cc1; 0.0136
C=CC(=O)Nc1cccc(-c2c[nH]c3nccc(-c4[nH]c(-c5ccccc5)nc4-c4ccc(F)cc4)c23)c1; 0.0105

// each listed compound needs a value for IC50
1. C=CC(=O)NCc1cccc(-c2nc(-c3ccc(F)cc3)c(-c3ccnc4[nH]c(-c5ccccc5)cc34)[nH]2)c1
2. Fc1ccc(-c2[nH]c(-c3ccccc3)nc2-c2ccnc3[nH]c(-c4ccccc4)cc23)cc1
3. C=CC(=O)Nc1cccc(-c2cc3c(-c4[nH]c(-c5ccccc5)nc4-c4ccc(F)cc4)ccnc3[nH]2)c1
4. Oc1cccc(-c2nc(-c3ccc(F)cc3)c(-c3ccnc4[nH]c(-c5ccccc5)cc34)[nH]2)c1
5. C=CC(=O)NCc1cccc(-c2nc(C3CC3)c(-c3ccnc4[nH]c(-c5ccccc5)cc34)[nH]2)c1
6. Nc1cccc(-c2cc3c(-c4[nH]c(-c5ccccc5)nc4-c4ccc(F)cc4)ccnc3[nH]2)c1

Result:
1. 0.0176
2. 0.215
3. 0.0432
4. 0.0304
5. 4.05
6. 0.0241

###

- TARGET_SYSTEM: Epidermal growth factor receptor (Homo sapiens, UniProt P00533, T790M/L858R)
- ASSAY_INFO: Inhibition of recombinant human GST-tagged EGFR L858R/T790M double mutant cytoplasmic domain expressed in baculovirus expression system preincubated for 20 mins followed by addition of [33P]-ATP measured after 2 hrs by filter-binding method
PROPERTY_NAME: IC50

# annotated cases, reported IC50 shown
C=CC(=O)NCc1cccc(-c2cc3cccnc3[nH]2)c1; Not Active
CCC(=O)Nc1cccc(-c2c[nH]c3nccc(-c4[nH]c(-c5ccccc5)nc4-c4ccc(F)cc4)c23)c1; Not Active
Fc1ccc(-c2nc(-c3ccccc3)[nH]c2-c2ccnc3[nH]ccc23)cc1; Not Active
C=CC(=O)Nc1cccc(-c2c[nH]c3nccc(-c4[nH]c(CCCO)nc4C4CC4)c23)c1; Not Active

API: the following record is the query input.
Problem: May I ask what IC50 has been recorded for `CCC(=O)Nc1cccc(-c2c[nH]c3nccc(-c4[nH]c(CCCO)nc4C4CC4)c23)c1` ?
Result: Not Active

###

- TARGET_SYSTEM: Epidermal growth factor receptor (Homo sapiens, UniProt P00533, L858R)
- ASSAY_INFO: Inhibition of recombinant human GST-tagged EGFR L858R mutant cytoplasmic domain expressed in baculovirus expression system preincubated for 20 mins followed by addition of [33P]-ATP measured after 2 hrs by filter-binding method
- CONDITION_PARAMETERS: read-out: IC50
pIC50: −log10 of the molar value.
I'd be grateful if you could share measured pIC50 for these entries.

Consider the worked cases shown below.
OCCCCc1nc(-c2ccc(F)cc2)c(-c2ccnc3[nH]c(-c4ccccc4)cc23)[nH]1; > 9.52
OCCc1nc(-c2ccc(F)cc2)c(-c2ccnc3[nH]c(-c4ccccc4)cc23)[nH]1; > 9.52

Problem: Recorded pIC50 of `C=CC(=O)Nc1cccc(-c2c[nH]c3nccc(-c4[nH]c(CCCO)nc4-c4ccc(F)cc4)c23)c1` , please.
Result: > 9.52
